target-under-test: Testis-specific serine/threonine-protein kinase 2 (Homo sapiens) (UniProt Q96PF2);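 further: values are mean inhibition of TSSK2 activity from the GSK PKIS profiling panel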
Sequence (whole entry): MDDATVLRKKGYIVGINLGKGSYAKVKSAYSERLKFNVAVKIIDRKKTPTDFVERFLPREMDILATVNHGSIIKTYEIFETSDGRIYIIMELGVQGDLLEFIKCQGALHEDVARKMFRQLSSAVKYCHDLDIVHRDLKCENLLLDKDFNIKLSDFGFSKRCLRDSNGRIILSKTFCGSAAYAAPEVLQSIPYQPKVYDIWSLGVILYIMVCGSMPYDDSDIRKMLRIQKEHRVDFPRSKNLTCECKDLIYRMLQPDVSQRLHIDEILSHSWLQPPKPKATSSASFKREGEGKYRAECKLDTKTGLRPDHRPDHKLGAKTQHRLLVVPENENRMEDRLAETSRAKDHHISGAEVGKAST
setup-conditions: at 0.1 µM
Tag: yes if measured inhibition is not below 0.7%, no if it is.

For this compound, is measured inhibition 0.7% or higher? `Nc1nccc(C#Cc2cncnc2Nc2ccc(OCc3cccc(F)c3)c(Cl)c2)n1`
yes

Do the same for `CC(C)c1ccc(Nc2nccc(-c3cnn4ncccc34)n2)cc1` please
yes

Then what about the compound `O=C(Nc1ccc(Oc2ccc3[nH]c(NC(=O)c4ccco4)nc3c2)cc1)Nc1cc(C(F)(F)F)ccc1F` ?
no

Next: `COc1cccc(-n2ncc3c(N/N=C/c4ccc(C)cc4)ncnc32)c1`
yes

* * *

target-under-test: Serine/threonine-protein kinase Sgk3 (Homo sapiens) (UniProt Q96BR1);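 further: each value is a mean of replicate inhibition readings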
Sequence (Q96BR1 whole entry): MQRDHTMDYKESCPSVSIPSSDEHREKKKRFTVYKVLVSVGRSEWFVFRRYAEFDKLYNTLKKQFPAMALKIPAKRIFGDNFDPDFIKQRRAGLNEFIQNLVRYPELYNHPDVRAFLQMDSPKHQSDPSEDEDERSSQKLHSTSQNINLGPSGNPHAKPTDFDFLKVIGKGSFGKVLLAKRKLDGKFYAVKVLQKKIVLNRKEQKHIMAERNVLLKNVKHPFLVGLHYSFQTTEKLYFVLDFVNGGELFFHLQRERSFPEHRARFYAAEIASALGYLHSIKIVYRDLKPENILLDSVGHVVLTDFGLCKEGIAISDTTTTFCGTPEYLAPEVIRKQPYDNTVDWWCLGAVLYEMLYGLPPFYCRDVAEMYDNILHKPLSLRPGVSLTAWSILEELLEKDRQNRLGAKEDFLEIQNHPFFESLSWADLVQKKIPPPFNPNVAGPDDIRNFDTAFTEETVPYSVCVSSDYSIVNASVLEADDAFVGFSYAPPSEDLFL
setup-conditions: at 1 µM
reported-metric: inhibition (%)
Just the number please, in %, no unit attached.

>>> recorded_measurement("NS(=O)(=O)c1ccc(Nc2cc(-c3cccc(O)c3)n[nH]2)cc1")
2.75
>>> recorded_measurement("COc1cc2ncnc(Nc3ccc(C)c(O)c3)c2cc1OC")
4.55
>>> recorded_measurement("COc1ccc(-c2nn3ncccc3c2-c2ccnc(Nc3cccc(C(F)(F)F)c3)n2)cc1")
3.41

Give its inhibition value. Item: `[O-][S+]1CCN(Cc2ccc(-c3ccc4ncnc(Nc5ccc(OCc6ccccc6)c(Cl)c5)c4c3)o2)CC1`
1.38

Consider next the molecule `Nc1nccc(-c2c(-c3ccc(F)cc3)nn3cc(C(F)(F)F)ccc23)n1` in the same way.
-3.28

* * *

Tested on: Tyrosine-protein kinase ABL1 (Homo sapiens), P00519 [M351T]
setup-conditions: at 0.1 µM
# inhibition listing for each entry below
# value in %; strip the unit string

>>> recorded_measurement("[O-][S+]1CCN(Cc2ccc(-c3ccc4ncnc(Nc5ccc(OCc6ccccc6)c(Cl)c5)c4c3)o2)CC1")
0.68
>>> recorded_measurement("ON=C1CCc2cc(-c3nc(C4CCNCC4)[nH]c3-c3ccncc3)ccc21")
0.36
>>> recorded_measurement("Cc1nc(-c2ccccc2)n2nc(NCCCN3CCOCC3)ncc12")
-1.13
>>> recorded_measurement("COC(=O)c1ccc2c(c1)C(=Cc1cc(Br)c(O)c(Br)c1)C(=O)N2")
0.64
>>> recorded_measurement("NS(=O)(=O)c1ccc(-c2cc3ccncc3cc2OCc2ccccc2)cc1")
3.16
>>> recorded_measurement("CS(=O)(=O)CCNCc1nc(-c2ccc3ncnc(Nc4ccc(OCc5cccc(C(F)(F)F)c5)cc4)c3c2)cs1")
1.36
>>> recorded_measurement("Cc1cc(Cl)cc2c1NC(=O)C2=NNc1ccc(S(N)(=O)=O)cc1")
-0.27
>>> recorded_measurement("COc1cccc(-n2nc(C)c3c(N/N=C(\\C)c4ccncc4)ncnc32)c1")
-0.39

Now look at this entry.
Name the recorded inhibition for `CN(c1ccc(NC(=O)Nc2ccc(OC(F)(F)F)cc2)cc1)c1ccnc(Nc2cccc(S(N)(=O)=O)c2)n1` .
64.9

* * *

target-under-test: RAC-alpha serine/threonine-protein kinase (Homo sapiens) (UniProt P31749)
Sequence (P31749 whole entry): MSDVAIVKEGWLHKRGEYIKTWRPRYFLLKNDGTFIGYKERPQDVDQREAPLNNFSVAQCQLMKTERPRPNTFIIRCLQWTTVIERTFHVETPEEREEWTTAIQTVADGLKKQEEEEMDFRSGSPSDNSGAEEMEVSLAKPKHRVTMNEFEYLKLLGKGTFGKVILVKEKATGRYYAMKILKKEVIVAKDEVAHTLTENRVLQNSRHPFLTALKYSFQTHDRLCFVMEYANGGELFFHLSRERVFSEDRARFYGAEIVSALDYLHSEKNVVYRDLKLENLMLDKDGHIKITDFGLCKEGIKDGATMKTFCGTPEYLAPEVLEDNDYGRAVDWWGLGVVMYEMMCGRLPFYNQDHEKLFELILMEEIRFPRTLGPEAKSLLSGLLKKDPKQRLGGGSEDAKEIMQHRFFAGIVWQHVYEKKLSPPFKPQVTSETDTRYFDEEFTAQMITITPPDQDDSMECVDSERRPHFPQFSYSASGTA
setup-conditions: at 1 µM
Description: GSK_PKIS: AKT1 mean inhibition at 1 uM [Nanosyn]
Let's look at some compounds and their measured inhibition.
Value expressed in %; do not type the unit.

>>> recorded_measurement("COc1cccc(-n2ncc3c(N/N=C/c4ccc(C)cc4)ncnc32)c1")
0.76
>>> recorded_measurement("CC(C)c1ccc(Nc2nccc(-c3cnn4ncccc34)n2)cc1")
0.64
>>> recorded_measurement("CCn1c(-c2nonc2N)nc2ccc(F)cc21")
0.42
>>> recorded_measurement("CCCN1CCCC(c2ccc(Nc3nc(Nc4cc(F)ccc4C(N)=O)c4cc[nH]c4n3)c(OC)c2)C1 (stereo not given)")
0.27

Please tell me: inhibition of `Cc1ccc2c(c1)/C(=N/Nc1ccc(S(N)(=O)=O)cc1)C(=O)N2` , system RAC-alpha serine/threonine-protein kinase (Homo sapiens) (UniProt P31749)?
-0.7

Same again, this time with `COc1cc2ncnc(Nc3ccc(C)c(O)c3)c2cc1OC`
0.96

// query: `NC(=O)c1sc(-n2cnc3ccccc32)cc1OCc1ccccc1Br`
1.07

* * *

target-under-test: SRSF protein kinase 3 (Homo sapiens);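 further: mean of replicate inhibition values against MSSK1 kinase, profiled within the GSK PKIS kinase inhibitor set screen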
setup-conditions: at 0.1 µM
The entries below come with measured inhibition values attached.
Answer format: numeric, % implied, no suffix.

Worked cases, answers included:
>>> recorded_measurement("Cc1cc(Cl)cc2c1NC(=O)C2=NNc1ccc(S(N)(=O)=O)cc1")
0.26
>>> recorded_measurement("C[C@@H](Oc1cc(-n2cnc3ccc(OC[C@@H](O)CO)cc32)sc1C(N)=O)c1ccccc1Cl")
-1.72
>>> recorded_measurement("COc1cc2ncnc(Nc3ccc4c(cnn4Cc4ccccc4)c3)c2cc1OC")
-1.9
>>> recorded_measurement("O=C(Nc1ccc(Oc2ccc3[nH]c(NC(=O)c4ccco4)nc3c2)cc1)Nc1cc(C(F)(F)F)ccc1F")
2.34
>>> recorded_measurement("c1ccc(Cc2nc3ccc(Nc4ncnc5ccccc45)cc3[nH]2)cc1")
0.5

Return reported inhibition; argument: `Nc1ccc(C#Cc2cncnc2Nc2ccc(OCc3cccc(F)c3)c(Cl)c2)cc1`
-1.31

Same question for `CN(c1ccc(NC(=O)Nc2ccc(OC(F)(F)F)cc2)cc1)c1ccnc(Nc2cccc(S(N)(=O)=O)c2)n1` please.
-1.09

Quick one: `NS(=O)(=O)c1ccc(Nc2cc(-c3cccc(O)c3)n[nH]2)cc1`
0.13

Query `N#Cc1c(NC(=O)c2ccccc2F)sc2c1CCCC2` next
-1.34

And what about the compound `CN1CCN(C(=O)c2ccc(NC(=O)Nc3ccc(N(C)c4ccnc(Nc5ccc(CS(C)(=O)=O)cc5)n4)cc3)cc2)CC1` ?
-0.32

Same question for `Oc1cccc(-c2nc(-c3ccccc3)[nH]c2-c2ccncc2)c1` please.
1.08

What about `CCS(=O)(=O)c1ccc(OC)c(Nc2ncc(-c3cccc(OC)c3)o2)c1` ?
0.87

Another compound: `CN(C)C(=O)O[C@H]1CN[C@H](C#Cc2cc3ncnc(Nc4ccc(OCc5cccc(F)c5)c(Cl)c4)c3s2)C1`
0.23

Same question for `ON=C1CCc2cc(-c3nc(C4CCNCC4)[nH]c3-c3ccncc3)ccc21` please.
-1.32

// same read-out, input: `Nc1nccc(-c2c(-c3ccc(F)cc3)ncn2CCCN2CCOCC2)n1`
-3.36

And then `COc1cccc(-n2ncc3c(N/N=C/c4ccc(C)cc4)ncnc32)c1` , what is it?
3.27

Further, for `FC(F)(F)c1ccc(-c2nn3ncccc3c2-c2ccnc(Nc3ccc4c(c3)OCCO4)n2)cc1` ?
5.92

# repeat for `COc1cc(Nc2nccc(-c3cnn4ncccc34)n2)cc(OC)c1`
-0.86

Follow-up item: `COc1cc(/C=N/Nc2ncnc3c2cnn3C(C)C)ccc1O`
-2.39

// query: `COc1ccc(-c2nn3ncccc3c2-c2ccnc(Nc3cccc(C(F)(F)F)c3)n2)cc1`
-2.11

* * *

Overview of reported inhibition across a group of molecules:
Test system: Epidermal growth factor receptor (Homo sapiens), P00533 [T790M]
Sequence (P00533 whole entry T790M): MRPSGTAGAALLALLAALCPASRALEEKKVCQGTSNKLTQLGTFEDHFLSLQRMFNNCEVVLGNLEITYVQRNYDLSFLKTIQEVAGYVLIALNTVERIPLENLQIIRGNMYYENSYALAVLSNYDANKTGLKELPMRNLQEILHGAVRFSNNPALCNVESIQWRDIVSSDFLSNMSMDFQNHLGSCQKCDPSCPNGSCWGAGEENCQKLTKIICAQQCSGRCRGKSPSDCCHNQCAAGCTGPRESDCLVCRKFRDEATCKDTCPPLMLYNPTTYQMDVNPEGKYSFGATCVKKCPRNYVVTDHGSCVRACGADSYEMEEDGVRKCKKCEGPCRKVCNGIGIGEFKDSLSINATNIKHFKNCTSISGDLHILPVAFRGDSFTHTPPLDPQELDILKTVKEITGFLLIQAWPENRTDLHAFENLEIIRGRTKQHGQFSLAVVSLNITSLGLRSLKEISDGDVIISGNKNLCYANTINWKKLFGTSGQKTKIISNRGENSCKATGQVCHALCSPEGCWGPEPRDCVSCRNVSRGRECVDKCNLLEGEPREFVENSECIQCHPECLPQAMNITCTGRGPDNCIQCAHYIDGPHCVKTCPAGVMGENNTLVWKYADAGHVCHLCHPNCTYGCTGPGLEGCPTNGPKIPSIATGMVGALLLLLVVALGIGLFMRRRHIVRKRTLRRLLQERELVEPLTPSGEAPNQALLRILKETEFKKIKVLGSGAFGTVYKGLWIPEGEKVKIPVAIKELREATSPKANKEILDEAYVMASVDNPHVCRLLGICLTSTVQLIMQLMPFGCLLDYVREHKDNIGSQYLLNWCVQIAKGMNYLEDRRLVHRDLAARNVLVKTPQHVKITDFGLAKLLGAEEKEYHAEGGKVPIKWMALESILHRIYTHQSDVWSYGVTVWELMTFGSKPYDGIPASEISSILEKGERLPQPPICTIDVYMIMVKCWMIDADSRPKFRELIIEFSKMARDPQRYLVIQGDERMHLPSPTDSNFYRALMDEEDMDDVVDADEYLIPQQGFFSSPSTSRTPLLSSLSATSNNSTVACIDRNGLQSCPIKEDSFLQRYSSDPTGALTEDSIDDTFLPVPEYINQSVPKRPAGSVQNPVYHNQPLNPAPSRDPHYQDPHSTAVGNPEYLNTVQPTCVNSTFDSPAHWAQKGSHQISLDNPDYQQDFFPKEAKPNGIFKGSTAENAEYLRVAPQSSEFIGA
setup-conditions: at 0.1 µM
Respond numerically; units are % and should not be typed.

>>> recorded_measurement("N#Cc1cccc(Nc2nccc(-c3cnn4ncccc34)n2)c1")
2.36

Find the recorded inhibition belonging to `ON=C1CCc2cc(-c3nc(C4CCNCC4)[nH]c3-c3ccncc3)ccc21` and report it.
-0.91

And the next one, `COc1cccc(-n2ncc3c(N/N=C/c4ccc(S(C)(=O)=O)cc4)ncnc32)c1` ?
0.29

Item: `O=S(=O)(CCOCc1ccc(-c2ccc3ncnc(Nc4ccc(OCc5cccc(F)c5)c(Cl)c4)c3c2)o1)c1ccccc1`
-0.58

Okay, and `CCS(=O)(=O)c1ccc(OC)c(Nc2ncc(-c3cccc(OC)c3)o2)c1` ?
1.83

Continue with `CN(c1ccc(NC(=O)Nc2ccc(OC(F)(F)F)cc2)cc1)c1ccnc(Nc2cccc(S(N)(=O)=O)c2)n1`
1.81

Try the molecule `NS(=O)(=O)c1ccc(N/N=C2\C(=O)Nc3ccc(Cl)cc32)cc1`
0.9

Same read-out for `COc1cccc(-n2ncc3c(N/N=C/c4ccc(C)cc4)ncnc32)c1` ?
0.91

Also `Nc1nccc(-c2c(-c3ccc(F)cc3)ncn2CCCN2CCOCC2)n1` ?
2.78

Okay, and `COC(=O)Nc1nc2cc(Oc3ccc(NC(=O)Nc4cccc(Br)c4)cc3)ccc2[nH]1` ?
2.15

Each recorded value in this set is attributed to ChEMBL document CHEMBL1961873.
